Below, each entry is listed alongside its reported pKa.
assay: physchem
I'd appreciate a reply containing only the number, no unit.

Indicate the recorded pKa value for this compound: O=C(O)c1ccc(O)cc1 [4-Hydroxybenzoic acid]
-0.38

Indicate the recorded pKa value for this compound: O=C(O)CCC(=O)O [Succinic acid]
-0.01

Indicate the recorded pKa value for this compound: O=C(O)CCc1ccccc1 [Hydrocinnamic acid]
-0.46

Further cases:
Indicate the recorded pKa value for this compound: O=C(O)c1ccc2ccccc2c1O [1-Hydroxy-2-naphthoic acid]
1.5
